Each record here notes measured EC50 CreLuc hNPY2R 100% hP.
tested-target: T1, human neuropeptide Y2 receptor (human, UniProt P49146 1-381)
T1 sequence (looked up): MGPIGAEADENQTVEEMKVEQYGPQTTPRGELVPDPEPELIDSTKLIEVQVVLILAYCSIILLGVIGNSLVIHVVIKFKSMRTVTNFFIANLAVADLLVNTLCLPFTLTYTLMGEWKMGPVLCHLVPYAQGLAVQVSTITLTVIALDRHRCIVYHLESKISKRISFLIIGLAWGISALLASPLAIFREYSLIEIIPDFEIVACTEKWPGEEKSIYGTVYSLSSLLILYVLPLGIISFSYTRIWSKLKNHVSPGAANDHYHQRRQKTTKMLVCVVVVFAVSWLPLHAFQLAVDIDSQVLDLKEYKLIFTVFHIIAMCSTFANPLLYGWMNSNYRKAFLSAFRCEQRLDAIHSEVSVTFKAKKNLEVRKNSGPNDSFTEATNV
experiment-notes: cell-based or functional assay
Starred links: 1 amine or outer side, 2 acyl side, 3 side chain; linkers in the order of their positions; H or OH if unused. Non-standard residues stand in square brackets, D forms with d. Groups on a side chain read outwards from the residue. No end group written: not given here. *: point of attachment. C18 diacid = O=C(O)CCCCCCCCCCCCCCCCC(=O)*; γGlu = O=C(O)[C@H](CCC(=O)[*:2])N[*:1]; εLys = N[C@@H](CCCCN[*:1])C(=O)[*:2]; Aib = CC(C)(N)C(=O)O
Write it as a number; the unit nM goes unstated.

Example cases with answers are listed next.
Y[Aib]EGTFTSDYSI[Aib]LEKQAQ[Aib]EFVQWLIK([εLys-γGlu-γGlu-γGlu-γGlu-γGlu-C18 diacid])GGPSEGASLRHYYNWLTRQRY-NH2 [Compound 154]    21.6
YXEGTFTSDYSIXLEKQAQXAFVQWLIKGGPEEGASLRHYYNWLTRQRY (Aib at 2, 13, 20; K28 side chain: C18DA-gGlu-gGlu-gGlu-gGlu-gGlu-AHX; C-terminal NH2) [Compound 162]    92.6

Q) Bench note: what EC50 CreLuc hNPY2R 100% hP did YXEGTFTSDYSIXLEKQAQXAFVEWLIKGGPSEGQSIRHYYNWLTRQRY (Aib at 2, 13, 20; K28 side chain: C20DA-gGlu-gGlu-gGlu-gGlu-gGlu-gGlu-eLys; C-terminal NH2) [Compound 134] show?
A) 40
